# TARGET_DESC: CDK9/cyclin K (Homo sapiens, UniProt P50750)
# Construct: purchased Invitrogen (ThermoFisher) PV4335
# Sequence (P50750 whole entry): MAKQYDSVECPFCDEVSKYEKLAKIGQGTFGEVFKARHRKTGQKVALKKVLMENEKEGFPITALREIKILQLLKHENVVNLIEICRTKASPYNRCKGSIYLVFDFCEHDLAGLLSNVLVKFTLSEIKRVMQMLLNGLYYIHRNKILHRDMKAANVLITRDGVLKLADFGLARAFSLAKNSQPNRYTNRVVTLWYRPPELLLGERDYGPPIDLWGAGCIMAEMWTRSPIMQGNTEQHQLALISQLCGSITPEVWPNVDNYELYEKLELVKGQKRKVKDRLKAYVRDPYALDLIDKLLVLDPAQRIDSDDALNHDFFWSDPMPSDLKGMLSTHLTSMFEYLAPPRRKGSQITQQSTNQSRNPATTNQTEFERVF
# Sequence (O75909 whole entry partner): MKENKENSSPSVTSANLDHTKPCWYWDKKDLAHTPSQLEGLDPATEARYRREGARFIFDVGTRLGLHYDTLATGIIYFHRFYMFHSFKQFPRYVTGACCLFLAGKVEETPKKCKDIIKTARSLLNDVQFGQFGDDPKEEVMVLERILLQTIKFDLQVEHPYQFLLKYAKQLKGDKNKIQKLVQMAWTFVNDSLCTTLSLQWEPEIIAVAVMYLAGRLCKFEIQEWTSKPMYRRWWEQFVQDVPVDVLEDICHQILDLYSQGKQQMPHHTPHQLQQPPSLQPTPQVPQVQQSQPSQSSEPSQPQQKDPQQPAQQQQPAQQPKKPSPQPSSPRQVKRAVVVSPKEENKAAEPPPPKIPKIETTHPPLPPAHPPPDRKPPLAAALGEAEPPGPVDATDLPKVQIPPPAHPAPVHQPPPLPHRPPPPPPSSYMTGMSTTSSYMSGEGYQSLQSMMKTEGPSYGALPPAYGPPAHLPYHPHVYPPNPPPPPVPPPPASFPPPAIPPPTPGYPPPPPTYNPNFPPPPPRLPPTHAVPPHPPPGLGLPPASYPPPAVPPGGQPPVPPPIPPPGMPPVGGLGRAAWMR
# PROTOCOL_DETAILS: TR-FRET Lanthascreen Eu Kinase Binding assay
# CONDITION_DESCRIPTION: classifies curves by quality of fit, efficacy and number of asymptotes
Counter-ions that a name gives are not always drawn.
Answer each item with its documented Curve Class.

Dear colleague, could you please provide Curve Class for the molecules listed below?
1. CC(=O)c1c(C)c2cnc(Nc3ccc(N4CCNCC4)cn3)nc2n(C2CCCC2)c1=O [Palbociclib (PD-0332991) HCl]
2. Cc1ncc(-c2ccnc(Nc3ccc(S(C)(=O)=O)cc3)n2)n1C(C)C
3. COc1ccc(CNc2nc(N(CCO)CCO)nc3c2ncn3C(C)C)cc1

-1.1
-1.2
-1.1

Dear colleague, could you please provide Curve Class for the molecules listed below?
1. O=C1Cc2c([nH]c3ccc([N+](=O)[O-])cc23)-c2ccccc2N1
2. O=C1NC(=O)/C(=C/c2ccc3nccc(-c4ccncc4)c3c2)S1 [GSK1059615]
3. O=C(NCc1cccc(O)c1)Nc1nc(-c2ccncc2)cs1
4. Nc1n[nH]c(N)c1N=Nc1ccc(O)cc1 (stereo in doubt)
5. CN(c1ncccc1CNc1nc(Nc2ccc3c(c2)CC(=O)N3)ncc1C(F)(F)F)[S+](C)(=O)[O-]

1: -1.1; 2: -1.1; 3: -1.2; 4: -1.1; 5: -1.1

Dear colleague, could you please provide Curve Class for the molecules listed below?
1. COc1ccc(F)c(F)c1C(=O)c1cnc(NC2CCN([S+](C)(=O)[O-])CC2)nc1N
2. O=C1OC(/C=C/c2ccccc2)=NC/1=C\c1cccnc1
3. CC(C)c1cc(CNc2nc(Nc3cc(C4CC4)[nH]n3)cc(N3CCN(C)CC3)n2)on1

5
-1.2
-1.1

Dear colleague, could you please provide Curve Class for the molecules listed below?
1. O=C1NCCSc2c1sc1ccc(O)cc21
2. CC(C)[C@H](CO)Nc1nc(Nc2cccc(Cl)c2)c2ncn(C(C)C)c2n1
3. CC(=O)N1CCN(C(=O)Cc2ccc(Nc3ncc(F)c(Nc4ccc(C(=O)Nc5ccccc5Cl)cc4)n3)cc2)CC1
4. O=C(Nc1c[nH]nc1-c1nc2ccc(CN3CCOCC3)cc2[nH]1)NC1CC1
5. C[C@@H](Oc1ccc2[nH]nc(/C=C/c3cnn(CCO)c3)c2c1)c1c(Cl)cncc1Cl
6. Cc1cc(Nc2cc(NC(=O)c3c(Cl)cccc3Cl)ccn2)nc(N)n1
7. Cc1nc(N)sc1-c1ccnc(Nc2ccc(N3CCOCC3)cc2)n1

[-1.1, -1.1, -1.1, -1.1, -1.1, -1.1, -1.1]

---

# TARGET_DESC: CDK9/cyclin K (Homo sapiens)
# Construct: purchased Invitrogen (ThermoFisher) PV4335
# PROTOCOL_DETAILS: TR-FRET Lanthascreen Eu Kinase Binding assay
# CONDITION_DESCRIPTION: in %
# From the text: The TR-FRET Lanthascreen Eu Kinase Binding assay for CDK9/cyclin K was purchased from ThermoFisher and performed as per manufacturer instructions.
Structures can show the parent of a compound that is named as a salt.
Answer each item with its documented Max Resp.
Give bare numbers.

Some compounds with known Max Resp results, for comparison:
| COMPOUND | NUMERIC_VALUE |
| --- | --- |
| Nc1n[nH]c(N)c1N=Nc1ccc(O)cc1 (stereo in doubt) | -95.5 |
| O=C(O)c1ccc2c(c1)nc(Nc1cccc(Cl)c1)c1ccncc12 [CX-4945 (sodium salt)] | -93.5 |

Dear colleague, could you please provide Max Resp for the compounds listed below?
1. CC(C)n1nc(-c2ccc(NC(=O)Nc3cccc(C(F)(F)F)c3)cc2)c2c(N)ncnc21 [AD57 (hydrochloride)]
2. O=C1Cc2c([nH]c3ccc(Br)cc23)-c2ccccc2N1
3. CC(C)c1c2cc(-c3ccnc(N[C@H]4CC[C@H](NC5CCOCC5)CC4)n3)ccc2nn1C
4. CN1CC[C@@H](c2c(O)cc(O)c3c(=O)cc(-c4ccc(C(F)(F)F)cc4Cl)oc23)[C@@H]1CO
5. CC(=O)c1cnc2ccc(-c3cc(Cl)c(O)c(Cl)c3)nc2c1N[C@H]1CC[C@H](CN(C)C)CC1
6. O=C(NCc1cccc(O)c1)Nc1nc(-c2ccncc2)cs1
7. Cc1ccc(C(N)=O)cc1Nc1nccc(-c2cn(C(C)C)c3cnccc23)n1

1. -79.5
2. -37.7
3. -89.7
4. -95.8
5. -98.5
6. -59.5
7. -99.8

Dear colleague, could you please provide Max Resp for the compounds listed below?
1. COc1ccc2c(c1)/C(=C/c1cnc[nH]1)C(=O)N2
2. O=C1OC(/C=C/c2ccccc2)=NC/1=C\c1cccnc1
3. CN1CCN(Cc2ccc(Nc3ncc(Cl)c(Nc4ccccc4S(=O)(=O)N(C)C)n3)cc2)CC1

-90.2
-68.2
-96.9
